tested_on: T1, human IL-10 receptor (hIL-10R alpha and beta chains) on HEK-Blue IL-10 reporter cells (human, UniProt Q13651 22-578; Q08334 20-325)
T1 sequence 1: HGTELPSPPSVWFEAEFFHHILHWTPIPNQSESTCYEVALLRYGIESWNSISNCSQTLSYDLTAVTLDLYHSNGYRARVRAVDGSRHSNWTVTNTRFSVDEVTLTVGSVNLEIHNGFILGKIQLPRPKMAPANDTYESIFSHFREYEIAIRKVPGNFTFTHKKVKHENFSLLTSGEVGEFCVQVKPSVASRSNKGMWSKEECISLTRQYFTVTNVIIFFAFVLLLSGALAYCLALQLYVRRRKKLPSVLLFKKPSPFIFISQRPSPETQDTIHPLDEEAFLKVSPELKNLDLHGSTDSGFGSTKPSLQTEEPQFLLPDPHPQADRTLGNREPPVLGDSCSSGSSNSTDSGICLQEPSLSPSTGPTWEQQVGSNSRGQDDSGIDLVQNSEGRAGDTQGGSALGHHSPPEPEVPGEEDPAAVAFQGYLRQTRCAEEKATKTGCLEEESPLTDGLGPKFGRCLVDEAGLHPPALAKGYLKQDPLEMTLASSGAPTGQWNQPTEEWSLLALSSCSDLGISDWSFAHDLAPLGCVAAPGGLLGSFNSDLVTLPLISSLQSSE
T1 sequence 2: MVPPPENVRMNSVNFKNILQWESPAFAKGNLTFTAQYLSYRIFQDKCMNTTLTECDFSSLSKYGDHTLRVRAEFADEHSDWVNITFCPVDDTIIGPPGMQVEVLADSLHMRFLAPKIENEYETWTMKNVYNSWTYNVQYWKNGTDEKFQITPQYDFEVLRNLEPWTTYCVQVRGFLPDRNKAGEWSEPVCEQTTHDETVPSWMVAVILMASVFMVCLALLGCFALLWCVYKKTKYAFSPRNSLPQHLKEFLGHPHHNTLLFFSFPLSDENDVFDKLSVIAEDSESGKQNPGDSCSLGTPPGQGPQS
assay_notes: cell-based or functional assay
Please provide measured Abs 630 (25 nM) for the entries that follow.
Please state the value followed by its unit.

{"binder": "IL10R binding molecule of SEQ ID NO: 306 (bispecific antibody) QVQLQESGGGSVQAGGSLRLSCAASGYTYSSGCMGWFRQAPGKEREAVAAINSDGSTSYADSVKGRFTISKDNAKNTLYLQMNSLKPEDTAMYYCAAEPYCSGGYPRWSVAEFGYWGQGTQVTVSSGGGSQVQLQESGGGSVQAGGSLRLSCAASRFTYSSYCMGWFRQAPGKEREGVASIDSDGSTSYTDSVKGRFTISKDNAKNTLYLQMNSLKPEDTAMYYCALDLMSTVVPGFCGFLLSAGMDYWGKGTQVTVSSASHHHHHH", "Abs 630 (25 nM)": "0.69 Abs 630"}

Shifting focus to the binder that follows.
Request: Which Abs 630 (25 nM) is reported for this binder? IL10R binding molecule of SEQ ID NO: 309 (bispecific antibody) QVQLQESGGGSVQAGGSLRLSCAASGYTYSSGCMGWFRQAPGKEREAVAAINSDGSTSYADSVKGRFTISKDNAKNTLYLQMNSLKPEDTAMYYCAAEPYCSGGYPRWSVAEFGYWGQGTQVTVSSGGGSQVQLQESGGGSVQAGGSLRLSCTVSGYTYSSNCMGWFRQAPGKEREGVATIYTGGGNTYYADSVKGRFTISQDNAKNTVYLQMNNLKPEDTAMYYCAAEPLSRVYGGSCPTPTFDYWGQGTQVTVSSASHHHHHH
Response: 0.45 Abs 630
